Tested on: Plasmodium falciparum
assayProtocol: Inhibition of Plasmodium falciparum protein farnesyltransferase at 5 nM by scintillation proximity assay
In this section we review reported inhibition values for a set of compounds.
Form entry: value (%) — number only.

Cn1cncc1CN1CC(N(Cc2ccccc2F)S(=O)(=O)c2cccc3nsnc23)Cc2cc(C#N)ccc21 (centres undefined) : 28
C/C=C/C=C\C=C\CN(C1Cc2cc(C#N)ccc2N(Cc2cncn2C)C1)S(=O)(=O)c1ccccn1 (centres undefined) : 87
COC(=O)N1CCC(CN(C2Cc3cc(C#N)ccc3N(Cc3cncn3C)C2)S(=O)(=O)c2cnn(C)c2)CC1 (centres undefined) : 98

// switching to the query compound
The compound listed as COC(=O)N1CCC(CN(C2Cc3cc(C#N)ccc3N(Cc3cncn3C)C2)S(=O)(=O)c2cn(C)cn2)CC1 (centres undefined) has a reported inhibition of 95
